Cited source for all entries: the Human Domainome abundance scans (Beltran et al. 2025)

B1: Mineralocorticoid receptor, residues 600 to 675; numbered along this chain, P08235 (parent)
chain: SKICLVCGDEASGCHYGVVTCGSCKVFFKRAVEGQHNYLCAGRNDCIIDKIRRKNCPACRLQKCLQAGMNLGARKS

Variants of: B1
assay summary: abundance fitness (aPCA) (normalised: wild type 0, dead -1); higher = more abundant; growth selection in yeast, the domain comes from the species named
condition details: Homo sapiens
Below is a list of entries, each paired with its recorded abundance fitness value.
The reply should be a number, written without any unit.

mutation label	abundance fitness
P57I	-0.168
H15M	-0.059
Q35I	-0.015

Moving on to the next variant.
Lab book: abundance fitness of G13I noted as -0.146
